Here, each record is paired with measured protein stability index data.
Test system: Saccharomyces cerevisiae;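 note: PSI is a weighted mean of sequencing reads over stability bins, variants kept only with over 10 reads, mCherry proximal and sfGFP distal, peptide attached via GGGS linker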
procedure-summary: protein stability index of tFT-peptide fusion (C-terminal peptide) (PSI (0-1 scale)); higher = more stable (slower turnover)
setup-conditions: genetic background: wild type; temperature: 30 C
quantity: protein stability index

INSERT INTO measurements (construct_sequence, observed_measurement) VALUES
  ('PMPRHVPRPTTP', 0.674),
  ('LRQKKIELPIEP', 0.687),
  ('ALPLPAPSSIPS', 0.712),
  ('FCFFSMGFVLAL', 0.453),
  ('SNLHCLQRGYSV', 0.725),
  ('KKKKKKKEKKAK', 0.644),
  ('VAVCGTTNGKNA', 0.75),
  ('RDAPLGRRLRPV', 0.678),
  ('GLSRYLTCNNLV', 0.674),
  ('LQRHSSQQTTSA', 0.658),
  ('KKNSTKKKKESW', 0.633),
  ('AWECCFLGRSGV', 0.846),
  ('PSRKFYSRHFPP', 0.671),
  ('GRKIIIRKNKIK', 0.613),
  ('TTRLARNEQVKR', 0.62),
  ('WLAIFFFSLSPF', 0.525),
  ('ETSERIEDKDGI', 0.698),
  ('SLGRLKSLRSAR', 0.685),
  ('GCLPSGTPAWFG', 0.751),
  ('CLGPGVLVGCVC', 0.402),
  ('SPPPSRHPPPRL', 0.708),
  ('MREAQAFRCLYG', 0.636),
  ('GCVMSVCSLAVS', 0.486),
  ('SPRPAPPRSTPP', 0.67),
  ('YLCLPPALISRI', 0.656),
  ('LYPNPPLLPCSP', 0.612),
  ('RNCSSALPPPPS', 0.715),
  ('LLVLPLVFSCSS', 0.53),
  ('LWGVGWPLLGGL', 0.691),
  ('SRLRITIRNVHS', 0.629),
  ('WYKIQILDPNVG', 0.749),
  ('IVPVCFVTDQHA', 0.661),
  ('GGRVAGSMGGGG', 0.719),
  ('KKRREKRTEKKQ', 0.661),
  ('LLRLVFHLETSS', 0.547),
  ('HMHTSKTFSNGP', 0.738),
  ('PPVLAVRTSLDA', 0.636),
  ('SVVFSQCLVNLG', 0.659),
  ('CYFKTIYRNMEY', 0.541),
  ('AGSLPLLYPSLR', 0.745),
  ('PRLPPLRPPPSP', 0.708),
  ('RGVVGFVGVVRE', 0.645),
  ('FVVWKDVLVMVR', 0.298),
  ('RVWQGRDGTVMK', 0.659),
  ('CPCASEYIAFTL', 0.701),
  ('FPPPPFFFIPLP', 0.724),
  ('VPSMSIVWCRVL', 0.213),
  ('GKFTGPLGARSR', 0.658),
  ('TFALAPLPPLPS', 0.68),
  ('PPPCPHLAPRLP', 0.714),
  ('PAAPPHGFPPPR', 0.634),
  ('KRIRTKLKKTQK', 0.695),
  ('PTPHLHPTSLPG', 0.724),
  ('PAPSAPLLRTRP', 0.67),
  ('GHAPSSCPPPPR', 0.692),
  ('QSQGTRLAPVTR', 0.729),
  ('GGLWLCFVPEVM', 0.563),
  ('PPPSPPHFTSPP', 0.683),
  ('GPPPRCKYLRAS', 0.635),
  ('PPSLLPSPPRLF', 0.667),
  ('LFCSSHRMQTKL', 0.746),
  ('KKNKEKGEREKK', 0.615),
  ('CLASCRHRTYLC', 0.483),
  ('VSFLVPRYLFSG', 0.654),
  ('GRRPVVDFLPCL', 0.736),
  ('REMDDRLEQSVP', 0.743),
  ('APSSPPPPTLPP', 0.716),
  ('RPAIPPATPPPP', 0.649),
  ('TRNNDKQTDTIV', 0.729),
  ('STGPFFMIKGSF', 0.72),
  ('SHAGTEAGPGWM', 0.782),
  ('LRVGMSSASVFQ', 0.733),
  ('RGRWVDWLSFTF', 0.728),
  ('PSSLATFLPWPI', 0.739),
  ('TALKNLPSVSSV', 0.712),
  ('TLSSGREVVGRW', 0.576),
  ('SGGQGCGGGWNV', 0.708),
  ('IAEFRRDKIVKR', 0.706),
  ('GRVRFVCVGLGG', 0.639),
  ('ATPNRSKNKHDT', 0.679),
  ('TPKTRPRSRAVK', 0.748),
  ('PSPAPLASPPRA', 0.693);
